Value source: PubChem BioAssay (NCI)

Test system: UACC-257 melanoma
Assay: NCI tumour cell line growth inhibition, 48 h
measured-attribute: TGI (µM)
The reply should contain only the number, in µM.

molecule: Cc1ccc([N+](=O)[O-])cc1S(=O)(=O)Nc1ccc(C2=NOC(c3ccco3)C2)cc1 (stereo unspecified)
unit-text: µM
TGI: 39.1

molecule: CCCCCCCCNc1cc2c3c(c1)CCCN3CCC2
unit-text: µM
TGI: 6.71

molecule: O=C1C(Cl)=C(Nc2cccc(Cl)c2)C(=O)N1Cc1ccc(Cl)cc1
unit-text: µM
TGI: 28.2

molecule: O=C(COc1ccc(Cl)cc1)N1N=C(c2ccc(Cl)cc2)CC1(O)c1ccccc1 (stereo unspecified)
unit-text: µM
TGI: 44.3

Query molecule follows.
Prompt: Could you share which TGI value was measured for `ClCc1cccc2c(CCl)cccc12` ?
Completion: 12.6

* * *

Test system: NCI/ADR-RES ovarian
Test: NCI tumour cell line growth inhibition, 48 h; in the data active means GI50 below about 0.43 µM; inactive means the rest
Form entry, call: pick from Y (active), N (inactive)

Observe how each entry below is paired with its result.
compound: COc1ncnc2c(-c3ccccc3)cn(COCc3ccccc3)c12
discrete-label: N
//
compound: COc1cc(/C=C\c2cc(OC)c(OC)c(OC)c2)cc(NC(=O)/C=C/c2cc(OC)c(OC)c(OC)c2)c1OC
discrete-label: N
//
compound: N=C1C(c2nc3ccccc3s2)=C(O)CN1c1ccc(F)c(Cl)c1
discrete-label: N
//
compound: O=C1C(Cl)=C(Nc2cccc(Cl)c2)C(=O)N1Cc1ccc(Cl)cc1
discrete-label: Y
//
compound: C/C=C(\C)C(=O)NC1=CC[C@@]2(C)C(=CCC3C2CC[C@@]2(C)C3CC[C@@H]2C(C)N(C)C)C1=O (some centres undefined)
discrete-label: N

Prompt: Look up the recorded call for `Cc1cc2c(cc1C)[n+](Cc1ccc3ccccc3c1)cn2Cc1ccc2ccccc2c1` in this test.
Completion: N

* * *

Tested on: RPMI-8226 leukemia
Test: NCI tumour cell line growth inhibition, 48 h; in the data active means GI50 below about 0.43 µM; inactive means the rest
Form entry, call: pick from 1.0 (active), 0.0 (inactive)

Observe how each entry below is paired with its result.
test-smiles: CCCCCCCCNc1cc2c3c(c1)CCCN3CCC2
discrete-label: 0.0
--
test-smiles: CCCCON(OC(=O)c1ccc2ccccc2c1)C(=O)c1ccccc1
discrete-label: 0.0
--
test-smiles: COc1ccc(/C=C/C(=O)c2cc(OC)c(OC)c(OC)c2)cc1OCc1cn(Cc2ccc(F)cc2)nn1
discrete-label: 0.0
--
test-smiles: COC12C=C/C(=C(/C(=O)OCc3cncnc3)C(=O)CCCCCCCCC3(OC)C=C/C(=C(/C(=O)OCc4cncnc4)C(=O)CCCCCCCC1)O3)O2
discrete-label: 1.0

Now for a further compound.
Prompt: Look up the recorded call for `CCOC(=O)N1CCN(/[N+]([O-])=N/Oc2ccc([N+](=O)[O-])cc2[N+](=O)[O-])CC1` in this test.
Completion: 1.0

* * *

This section presents compounds with their documented TGI values.
System: MDA-N
Assay: NCI tumour cell line growth inhibition, 48 h

Some solved entries appear below for comparison.
compound: CC(Cc1ccccc1)Nc1ncnc2c1ncn2C1OC(CO)CC1O (stereo unspecified)
TGI: > 100 µM
--
compound: Cc1ccc(Cc2n[nH]c(=O)n2Nc2ccccc2)cc1
TGI: > 100 µM
--
compound: O=C1N=C(SC(SC2=NC(=O)C3(NN2)c2ccccc2-c2ccccc23)=C(SC2=NC(=O)C3(NN2)c2ccccc2-c2ccccc23)SC2=NC(=O)C3(NN2)c2ccccc2-c2ccccc23)NNC12c1ccccc1-c1ccccc12
TGI: > 10 µM
--
compound: CCN(C(=O)N[C@@H](Cc1ccccc1)C(=O)N[C@@H](CC(C)C)C(=O)OC)c1ccccc1
TGI: > 100 µM
--
compound: O=[N+]([O-])c1c(F)c(F)c2c(c1F)Nc1ccccc1S2
TGI: 14.5 µM
--
compound: CCCc1cc(=O)oc2c3c(c4c(c12)OC(C)(C)CC4)O[C@@H](C)[C@H](C)[C@H]3O
TGI: 16.4 µM
--
compound: O=C(O)CN(CC(=O)O)Cc1cc(C#Cc2ccc(C#Cc3ccccc3)cc2)cc(CN(CC(=O)O)CC(=O)O)n1
TGI: > 100 µM
--
compound: N#C[C@@H](c1nc2ccccc2s1)c1ncccc1[N+](=O)[O-]
TGI: > 31.6 µM

Prompt: Short answer please: TGI, MDA-N, entry CC(C)(C)[Si](C)(C)OCC1OC(n2cnc3c(N)ncnc32)CC1O (stereo unspecified)
Completion: > 100 µM

Prompt: And `C/C(=C(/C)c1ccc(O)cc1)c1ccc(O)cc1` ?
Completion: > 100 µM

Prompt: And `Cn1c(=O)c2c(nc3n(CCCCl)c(=O)ccn23)n(C)c1=O` ?
Completion: > 100 µM

Prompt: And `CN1Cc2cc3cc4c(cc3nc2N(C)C1)OCCO4` ?
Completion: > 100 µM

* * *

This section presents compounds with their documented TGI values.
Test system: HL-60(TB) leukemia
Assay: NCI tumour cell line growth inhibition, 48 h
The reply should contain only the number, in µM.

Some solved entries appear below for comparison.
compound: CCN1C(=O)N(CC)C2C1NN=c1s/c(=C\c3cccc(F)c3)c(=O)n12 (stereo not given)
TGI (µM): 0.46
--
compound: C=CCN=c1sc2c(n1NC(=O)c1cc3ccc1CCc1ccc(cc1)CC3)C(=O)c1ccccc1C2=O
TGI (µM): 3.26
--
compound: C/C(=C(/C)c1ccc(O)cc1)c1ccc(O)cc1
TGI (µM): 81.4
--
compound: COc1ncnc2c(-c3ccccc3)cn(COCc3ccccc3)c12
TGI (µM): 18.1
--
compound: O=[N+]([O-])c1c(F)c(F)c2c(c1F)Nc1ccccc1S2
TGI (µM): 16.1

Prompt: Could you share which TGI value was measured for `CC(=O)C1(Cc2cccc3ccccc23)S(=O)(=O)OCCOS1(=O)=O` ?
Completion: 41.4

Prompt: And O=C(COc1ccc(Cl)cc1)N1N=C(c2ccc(Cl)cc2)CC1(O)c1ccccc1 (stereo not given) ?
Completion: 28

Prompt: And Cc1ccc([N+](=O)[O-])cc1S(=O)(=O)Nc1ccc(C2=NOC(c3ccco3)C2)cc1 (stereo not given) ?
Completion: 54.7

Prompt: And `Cc1c2ccncc2c(C)c2c1[nH]c1ccc(OC(C)C)cc12` ?
Completion: 4.46

Prompt: And `CCN(Cc1ccc(Cl)cc1)c1ccc(CO)c(Cl)c1` ?
Completion: 20.8

Prompt: And CCc1cc2c(c3c1CCC3=O)CC1(Cc3ccc(C)cc3C1)C2 (stereo not given) ?
Completion: 41

Prompt: And `O=c1c2ccccc2nc(-c2cc3c(cc2Cl)Sc2nccn2S3(=O)=O)n1-c1ccccc1` ?
Completion: 15.5

Prompt: And `C[C@@]1(O)C[C@@H](N2C(=O)O[C@@H](c3ccccc3)[C@H]2c2ccccc2)[C@@H]1COCc1ccccc1` ?
Completion: 23.5

Prompt: And `CC1=NN(c2cccc(Cl)c2)C(=N/c2nc3ccccc3s2)/C1=C\c1ccc(Cl)cc1` ?
Completion: 54.5

* * *

Tested on: DLD-1 colon
Experiment: NCI tumour cell line growth inhibition, 48 h
This section presents compounds with their documented TGI values.

Some solved entries appear below for comparison.
compound: NC(=O)C(=O)N/N=C1\C(=O)N(c2ccc(Cl)cc2Cl)C(=O)C1C(=O)Nc1ccc(Cl)cc1Cl (stereo unspecified)
measured-attribute: TGI
endpoint-result: > 100 µM

compound: Cc1cc(CC(=O)NCCO)n(CCO)c(=O)c1
measured-attribute: TGI
endpoint-result: > 100 µM

compound: CSC(=Nc1nnc(-c2ccc([N+](=O)[O-])cc2)s1)SC
measured-attribute: TGI
endpoint-result: > 100 µM

compound: O=C(O)CCN(CCCCN(CCC(=O)O)CCC(=O)O)CCC(=O)O
measured-attribute: TGI
endpoint-result: > 100 µM

compound: C=C(C)C(O)CCC1(C)C=Cc2c(c(C)cc3c2[nH]c2ccccc23)O1 (stereo unspecified)
measured-attribute: TGI
endpoint-result: 18.8 µM

Prompt: Could you share which TGI value was measured for `Cc1ccc2c(c1)C(=O)N(N(C)C)CC(=O)N2` ?
Completion: > 100 µM

* * *

Test system: HCT-15 colon
Assay: NCI tumour cell line growth inhibition, 48 h
measured-attribute: log10 TGI (log10 of the value in µM)
The base-10 logarithm of TGI, taken with TGI in µM, is what appears here.

Prompt: Could you share which log10 TGI value was measured for `Cc1cccc(/C=C/c2c(C(=O)/C=C/c3ccccc3)c(C)nc3ccccc23)c1` ?
Completion: 0.55

Prompt: And `CCCc1cc(=O)oc2c3c(c4c(c12)OC(C)(C)CC4)O[C@@H](C)[C@H](C)[C@H]3O` ?
Completion: 1.40

Prompt: And CC(C)Oc1c(O)c2c3c(oc(=O)n3C=CC2c2ccccc2)c1OC(C)C (stereo not given) ?
Completion: 1.53

Prompt: And `CC1=NN(c2cccc(Cl)c2)C(=N/c2nc3ccccc3s2)/C1=C\c1ccc(Cl)cc1` ?
Completion: 1.46

Prompt: And CC(C)=CC1C[C@H](C2CC=C3C2(C)CCC2[C@@]3(C)C(=O)CC3[C@]2(C)C=CC(=O)[C@]3(C)CO)CO1 (stereo not given in full) ?
Completion: 1.61
